Test: human hepatoma cell viability loss – ATP luminescence, cytotoxicity control for P. falciparum antimalarial project, primary screen (AID 2303);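 note: 0% = DMSO wells and 100% = digitonin-killed cells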
Conditions: HepG2 viability, 24-48 h, at 10 µM, active compounds read high
Cut-off 40% on inhibition: below means 1, at or above means -1.

1) CC(=O)Nc1ccc(CN2CCCN(c3cc(NC(=O)c4cccc(C)c4)ccn3)CC2)cc1
1
2) Cc1cc(F)ccc1-c1nc(NCC(O)CNCCc2ccccc2)nc2c1ccc(=O)n2-c1c(F)cccc1F (stereo not drawn)
1
3) Cc1cccc2[nH]c(-c3ccc(-c4ccc(CN5CCCCC5)cc4)s3)nc12
1
4) CC(C)(C)c1ccc(CN2CCC(NC(=O)c3cc(-c4cccc(C(F)(F)F)c4)cs3)C2)cc1 (stereo not drawn)
1
5) Cc1cc(N)c2cc(NC(=O)/C=C/c3ccccc3Cl)ccc2n1
-1
6) Clc1ccc(C2CCN(CCCOc3ccc4c(c3)CCNCC4)CC2)cc1
-1
7) CC1(C)N=C(N)N=C(N)N1OCc1cccc2c1ccc1ccccc12
-1
8) CCc1cccc(NC(=O)c2ccc(CN3CCCN(CC4CCCCC4)CC3)cc2)c1
-1

----------
Experiment: antimalarial activity against Dd2 strain (AID 2302);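 note: 0% = DMSO untreated growth and 100% = chloroquine plus artemisinin killed control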
Settings: P. falciparum Dd2 in RBCs, LDH growth readout, 72 h; at 2 µM
Activity calls are given as the source filed them.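 The calls were made as follows: active = growth inhibition above 50% at the single 2 µM test dose, taken to imply half-maximal potency below 2 µM; inactive = the rest.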
Possible outcomes: active, inactive

1. CC1(C)N=C(N)N=C(N)N1c1ccc([N+](=O)[O-])cc1
inactive
2. O=C(/C=C/c1ccc(Cl)c(Cl)c1)N1CCC(CNCc2cccc3cc[nH]c23)CC1
inactive
3. O=C(NC12CC3CC(CC(C3)C1)C2)C(=O)c1c[nH]c2ccccc12
inactive
4. CCOc1ccc2nc(C)cc(NN=Cc3cccc([N+](=O)[O-])c3)c2c1
active

----------
Target: Protein kinase 7 (PK7), Plasmodium falciparum 3D7 (PF3D7_0213400)
Test: inhibition of Plasmodium PK7 catalytic activity – biochemical, TCAMS antimalarial set, Kinase-Glo luminescence (AID 1159587)
Details: recombinant PfPK7, Kinase-Glo ATP depletion luminescence
Active and inactive are the calls of the source. The rule behind the calls is not given here.
Observable: outcome

1) CC(C)CC(=O)N(Cc1ccc(-c2ccc(CNC3Cc4ccccc4C3)cc2)cc1)C1CCNCC1
inactive
2) NCC(=O)Nc1cccc(Nc2nccc(-c3c(-c4cccc(NC(=O)c5ccccc5)c4)nn4ccccc34)n2)c1
inactive
3) O=C(CCc1cnc[nH]1)Nc1cccc(-c2ccc(-c3nc4ccc(F)cc4[nH]3)cc2)c1
inactive

----------
Assay: inhibition of 3D7 malaria parasite growth – strain 3D7 (AID 2306);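 note: 0% = DMSO wells and 100% = chloroquine plus artemisinin control wells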
Details: P. falciparum 3D7 erythrocytic growth, LDH absorbance, 72 h; at 2 µM; active compounds read high
Lab note: compare growth inhibition against 90%. Equal or greater, write Met. Smaller, write Not met.

1) O=C(Nc1ccc(Cl)c(C(F)(F)F)c1)N[C@H]1CCN(CCCCCNC(=O)[C@@H]2C[C@H]2c2ccc(Cl)c(Cl)c2)C1
Met
2) C=CCOC(=O)O[C@@H]1[C@@H](OC(=O)OCC=C)[C@@H](OC)O[C@H](COC(c2ccccc2)(c2ccccc2)c2ccccc2)[C@H]1OC(=O)OCC=C
Met
3) O=C(Nc1cccc(CN2CCCN(Cc3ccc(O)cc3)CC2)c1)c1cccc(C(F)(F)F)c1
Met
4) CCCc1cccc(OC)c1OCCCON1C(N)=NC(N)=NC1(C)C
Met
5) O=C(C=Cc1ccc(-c2ccccc2)cc1)N1CCC(CCN2CCC(c3c[nH]c4ccccc34)CC2)CC1
Not met
6) CNC(=S)NN=C(C)c1ccccn1
Met
7) CN1CCN(c2ccc(Nc3ncc([N+](=O)[O-])c(Nc4ccccc4O)n3)cc2)CC1
Met
8) COc1ccc2nc3cc(Cl)ccc3c(Nc3ccc(O)c(CNC(C)C)c3)c2c1
Met
9) COc1cc(NC(=O)N2CCc3ccc(OCCC4CCCN4C)cc32)cc(C(F)(F)F)c1 (centres undefined)
Met
10) Cc1ccc(F)c(OCC2CCN(c3ccc(C(=O)NC4CC4)cn3)CC2)c1
Met
11) OC(COc1ccccc1-c1nc2ccccc2o1)CN1CCCN(CCc2ccccc2)CC1 (centres undefined)
Met
12) O=C1CCCN1CCCNCc1ccc(-c2ccc(-c3nc4ccc(F)cc4[nH]3)s2)cc1
Met
13) Nc1nc2ncn(COC(COCc3ccccc3)COCc3ccccc3)c2c(=O)[nH]1 (tested in a mixture with another compound)
Not met
14) O=C(Nc1ccc(CCN2CCC(c3nc(COCC(F)(F)F)c(-c4ccccc4)o3)CC2)cc1)c1ccc(F)cc1
Not met
15) CCCn1c(=N)c(C(=O)NCCc2ccccc2)cc2c(=O)n3cccc(C)c3nc21
Met
16) c1ccc(C2CCC(N3CCC(N4CCCC4)CC3)CC2)cc1 (centres undefined)
Met

The reported measurements were obtained from PubChem BioAssay.
